# Tested on: SK-OV-3 ovarian
# experimental_details: NCI tumour cell line growth inhibition, 48 h
Exercise: state measured GI50 for each of the molecules provided.

Below are worked cases with known answers.
# molecule, GI50
rows = [
    ("N=C(N)c1ccc(-c2ccc(-c3ccc(Cl)cc3)s2)nc1", "3.56 µM"),
    ("CCN1C(=O)N(CC)C2C1NN=c1s/c(=C\\c3ccc[nH]3)c(=O)n12 (stereo not given)", "0.301 µM"),
    ("O=c1c(-c2ccccc2)coc2cc(OC/C(=N/O)c3ccc(F)cc3)ccc12", "15.4 µM"),
    ("Cc1oc2c(c1C(=O)N1CC[C@@H](N)C1)C(=O)c1c(c(O)c3ccccc3c1O)C2=O", "1.1 µM"),
]

Enquiry: Look at this molecule and give its reported GI50. Nc1n[nH]c(N)c1N=Nc1ccc(O)cc1
Return: 49.2 µM

---

# Test system: EKVX NSCLC
# experimental_details: NCI tumour cell line growth inhibition, 48 h
Exercise: state measured TGI for each of the molecules provided.

# molecule, experimental_system, result_value
measured = [
    ("COC(=O)C#CCC1CCCC1C1SCCS1 (stereo not drawn)", "EKVX NSCLC", "> 100 µM"),
    ("CN(/N=N/c1nc[nH]c1C(N)=O)C1CCCCC1", "EKVX NSCLC", "> 100 µM"),
    ("CC(NNC(=O)c1ccncc1)c1ccc(Cl)c(Cl)c1 (stereo not drawn)", "EKVX NSCLC", "> 100 µM"),
    ("COC(=O)/C=C/c1cc(OC)c2oc(-c3ccc(OC)c(OC)c3)c(C(=O)OC)c2c1", "EKVX NSCLC", "> 100 µM"),
    ("O=c1[nH]c2cc3cccnc3c(Cl)c2nc1CBr", "EKVX NSCLC", "52.1 µM"),
]

Each of the following entries comes with a recorded value; kindly state TGI for each.
1. Nc1n[nH]c(N)c1N=Nc1ccc(O)cc1
2. COc1ccc2c(c1)CC1Cc3ccccc3CCN1C2 (stereo not drawn)
3. Cc1ccnc(NC(=S)Nc2cccc(Cl)c2)c1
4. O/N=C1\CCc2nonc2\C1=N/Nc1ccccc1
5. Cn1c2c(c3ccccc31)CCN1C(=O)C3SC21C1C(=O)N(c2ccccc2)C(=O)C31 (stereo not drawn)
6. O=S1(=O)C(c2ccccc2)=C(O)c2ccccc21
7. NC(=O)c1cccc(-c2cc(C(N)=O)ccc2Cl)c1

Return:
["67.8 µM", "> 100 µM", "> 100 µM", "> 100 µM", "> 100 µM", "> 100 µM", "> 100 µM"]

Enquiry: Look at this molecule and give its reported TGI. CSc1ncc2c(n1)-c1ccccc1OC2NC(C)(C)C (stereo not drawn)
Return: > 100 µM

---

# Tested on: SK-MEL-2 melanoma
# experimental_details: NCI tumour cell line growth inhibition, 48 h
Where a SMILES comes first, the peptide text is derived from it. [ ]: non-standard residue; d: D form. The star is where a group is joined. ξ: configuration not given here. ξD = NC(CC(=O)O)C(=O)O; Ac3c = NC1(C(=O)O)CC1; Boc = CC(C)(C)OC(=O)*; OtBu = CC(C)(C)O*
Exercise: state measured TGI for each of the compounds provided.

Each of the following entries comes with a recorded value; kindly state TGI for each.
1. COC(=O)C1(NC(=O)C(CC(=O)OC(C)(C)C)NC(=O)OC(C)(C)C)CC1 (stereo not drawn) (Boc-[ξD](OtBu)-[Ac3c]-OMe)
2. O=C1/C(=C/c2cccc(Br)c2)COc2ccc(O)c(O)c21
3. CNC(=S)N/N=C(\C)c1nc2ncccc2[nH]1

Return:
["> 100 µM", "3.11 µM", "> 100 µM"]
